Biological target: UniProt:P17898
Sequence (P17898 1-393): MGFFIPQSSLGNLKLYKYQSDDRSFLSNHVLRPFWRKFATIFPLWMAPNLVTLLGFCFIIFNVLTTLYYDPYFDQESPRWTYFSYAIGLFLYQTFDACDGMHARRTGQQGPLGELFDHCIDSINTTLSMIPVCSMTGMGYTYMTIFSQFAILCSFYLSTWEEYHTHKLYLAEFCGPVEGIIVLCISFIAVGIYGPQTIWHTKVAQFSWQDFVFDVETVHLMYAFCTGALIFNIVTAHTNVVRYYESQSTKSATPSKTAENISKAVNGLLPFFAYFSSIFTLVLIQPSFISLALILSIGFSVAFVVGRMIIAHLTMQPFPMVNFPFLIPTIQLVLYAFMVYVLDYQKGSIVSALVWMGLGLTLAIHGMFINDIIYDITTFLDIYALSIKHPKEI
readoutKind: IC50 (nM)
Express the result in nM but write the number alone.

Complete the entry with IC50 for "COc1ccc2c(c[n+](C)c3c4cc5c(cc4ccc23)OCO5)c1OC"
443
